Hello, the source for this data is patent US8987314B2, in case you need it.

- Tested system: Endothelial lipase (EL) (Homo sapiens (Human), UniProt Q9Y5X9)
- Sequence (Q9Y5X9 21-500): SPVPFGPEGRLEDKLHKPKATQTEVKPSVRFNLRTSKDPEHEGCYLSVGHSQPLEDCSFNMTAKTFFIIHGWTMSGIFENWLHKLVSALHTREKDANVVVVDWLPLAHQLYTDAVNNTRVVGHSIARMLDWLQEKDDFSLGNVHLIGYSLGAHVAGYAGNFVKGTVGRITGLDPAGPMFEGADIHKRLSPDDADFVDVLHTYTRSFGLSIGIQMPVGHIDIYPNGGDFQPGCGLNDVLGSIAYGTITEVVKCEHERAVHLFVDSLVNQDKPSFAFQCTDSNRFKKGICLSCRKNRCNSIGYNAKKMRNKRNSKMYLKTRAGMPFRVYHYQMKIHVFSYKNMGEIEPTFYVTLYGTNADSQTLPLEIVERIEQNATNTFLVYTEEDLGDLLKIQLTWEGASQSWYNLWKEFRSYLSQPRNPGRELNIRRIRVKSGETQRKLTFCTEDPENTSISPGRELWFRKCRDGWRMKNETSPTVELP
- Measurement description: EL assay: endothelial lipase activity with fluorescent substrate A10070 in DMPG vesicles
- Assay type: biochemical
- Description: Endothelial lipase (EL) and hepatic lipase (HL) activities were measured using a fluorescent substrate, A10070, (Invitrogen, CA) doped into an artificial vesicle containing DMPG (Avanti Polar Lipids) as the excipient. […] The enzymatic assay was measured using 384-well white Optiplates. […] The reaction rates were measured on a Gemini plate reader with an excitation wavelength of 490 nm and an emission wavelength of 530 nm. […]
Each entry below lists one item and its recorded IC50 value.
Property name: IC50

Compound | Meas value
NS(=O)(=O)CCNC(=O)C(c1nc2cc(-c3ccc(F)nc3)ccc2s1)S(=O)(=O)Cc1ccc(OC(F)(F)F)cc1 (stereo not shown) | 0.5 nM
CS(=O)(=O)C(C(=O)NCCS(N)(=O)=O)c1nc2ccc(-c3c[nH]nc3C(F)(F)F)cc2s1 (stereo not shown) | < 10 nM
CC(C)(O)CNC(=O)c1cccc(-c2ccc3nc(C(C(=O)NCCS(N)(=O)=O)S(=O)(=O)CCC(F)(F)F)sc3c2)c1 (stereo not shown) | 1 nM
NS(=O)(=O)CCNC(=O)C(c1nc2ccc(-c3ccccc3)cc2s1)S(=O)(=O)Cc1ccccc1 (stereo not shown) | < 10 nM
